- test_protocol: Plasma and total brain concentrations at 1 h post a single oral administration to female C57BL/6 mice
- Format: in vivo
- recorded_conditions: mouse, 1 h post single oral 10 mg/kg, LC-MS/MS, read-out: Brain:plasma ratio
Reported Kp at 1 h values for a set of compounds
measure_name: Kp at 1 h

compound=C=CC(=O)N1CCC[C@@H](c2c(F)c(F)c(C(N)=O)c3[nH]c(C)c(F)c23)C1 measure_name="Kp at 1 h" result="0.1 to 0.5"
compound="C=CC(=O)N1CCC2CCN(c3c(F)cc(C(N)=O)c4[nH]c(C)c(C)c34)CC21 (single isomer, unassigned) [Compound 32b]" measure_name="Kp at 1 h" result="< 0.1"
compound=CC#CC(=O)N[C@H]1C[C@@H](F)CN(c2c(F)cc(C(N)=O)c3[nH]c(C)c(Cl)c23)C1 measure_name="Kp at 1 h" result="0.1 to 0.5"
compound="C=CC(=O)N1CCC2CCN(c3c(F)cc(C(N)=O)c4[nH]c(C)c(Cl)c34)CC21 (single isomer, unassigned) [Compound 29a]" measure_name="Kp at 1 h" result="0.1 to 0.5"
